Origin of measurements: patent US20240116985A1

target-under-test: full-length beta-Catenin (Uniprot ID P35222) (Homo sapiens (Human)) (UniProt P35222)
Sequence (P35222 whole entry): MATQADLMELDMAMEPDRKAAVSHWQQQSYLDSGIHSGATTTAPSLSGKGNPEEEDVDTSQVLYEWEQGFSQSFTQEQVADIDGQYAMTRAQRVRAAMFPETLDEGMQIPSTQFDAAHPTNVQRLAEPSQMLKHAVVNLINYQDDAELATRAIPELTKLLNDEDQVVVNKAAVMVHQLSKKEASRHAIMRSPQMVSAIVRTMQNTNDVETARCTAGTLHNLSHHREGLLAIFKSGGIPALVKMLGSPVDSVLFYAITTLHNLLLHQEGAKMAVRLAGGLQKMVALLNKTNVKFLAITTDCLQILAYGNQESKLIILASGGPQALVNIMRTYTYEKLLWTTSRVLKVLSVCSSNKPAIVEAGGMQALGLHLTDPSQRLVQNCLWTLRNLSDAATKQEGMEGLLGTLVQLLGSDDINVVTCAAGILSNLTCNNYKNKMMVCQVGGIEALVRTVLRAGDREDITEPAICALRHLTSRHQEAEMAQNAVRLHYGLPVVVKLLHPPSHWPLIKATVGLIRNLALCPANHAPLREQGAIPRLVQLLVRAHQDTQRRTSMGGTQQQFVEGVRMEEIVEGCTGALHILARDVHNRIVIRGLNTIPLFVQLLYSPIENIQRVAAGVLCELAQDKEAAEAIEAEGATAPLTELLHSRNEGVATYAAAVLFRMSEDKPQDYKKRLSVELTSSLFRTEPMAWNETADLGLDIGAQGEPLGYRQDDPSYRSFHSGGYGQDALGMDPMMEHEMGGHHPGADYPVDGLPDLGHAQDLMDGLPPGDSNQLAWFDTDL
experimental-protocol: FP competition: displacement of 5FAM-TCF4(10-53) from full-length beta-catenin
pEC50: −log10 of the molar value. Starred links: 1 amine or outer side, 2 acyl side, 3 side chain; linkers in the order of their positions; H or OH if unused. Positions of bridges follow the written chain, without caps; N, C: chain ends. Non-standard residues stand in square brackets, D forms with d. Primed or numbered codes have the meaning given here. *: point of attachment. PyrS2″ = (S)-3-amino-1-((pent-4-en-1-yloxy)carbonyl)pyrrolidine-3-carboxylic acid (stapling residue), C=CCCCOC(=O)N1CC[C@@](N[*:1])(C(=O)[*:2])C1; B5(4) = 2,2-bis(4-pentenyl)glycine = 2-amino-2-(pent-4-en-1-yl)hept-6-enoic acid (stitching residue), C=CCCCC(CCCC=C)(N[*:1])C(=O)[*:2]; B5(5) = 2,2-bis(4-pentenyl)glycine, 2-amino-2-(pent-4-en-1-yl)hept-6-enoic acid (stitching residue), C=CCCCC(CCCC=C)(N[*:1])C(=O)[*:2]; TfeGA = (S)-2-amino-3-((carboxymethyl)(2,2,2-trifluoroethyl)amino)propanoic acid, O=C([C@H](CN(CC(=O)[*:3])CC(F)(F)F)N[*:1])[*:2]; Phe(2-Cl) = N[C@@H](Cc1ccccc1Cl)C(=O)O; Bta = N[C@@H](Cc1csc2ccccc12)C(=O)O; αAllylPro = C=CC[C@@]1(C(=O)O)CCCN1; tBuAla = CC(C)(C)C[C@H](N)C(=O)O; 3Thi = N[C@@H](Cc1ccsc1)C(=O)O; Thr(ol) = C[C@@H](O)[C@H](N)CO; hSer = N[C@@H](CCO)C(=O)O; Alaol = C[C@@H](CO)N*
endpoint-label: pEC50

Consider the reported pEC50 for these binders:
binder	pEC50
Ac-[αAllylPro][hSer][tBuAla][B5(5)]DDAAFN[PyrS2″][3Thi][Bta]Q-NH2 (staple 1-4, 4-11) [I-1228]	7.00
Ac-[αAllylPro]D[tBuAla][B5(4)]D[TfeGA]AAFT[PyrS2″][Phe(2-Cl)][Bta]-Alaol (staple 1-4, 4-11) [I-1242]	7.52
Ac-[αAllylPro]D[tBuAla][B5(5)][hSer]DAAFN[PyrS2″][3Thi][Bta]Q-NH2 (staple 1-4, 4-11) [I-1214]	6.94

[A] Ac-[αAllylPro]D[tBuAla][B5(4)]DDAAFL[PyrS2″][Phe(2-Cl)][Bta][Thr(ol)] (staple 1-4, 4-11) [I-1249]
[B] Ac-[αAllylPro]S[tBuAla][B5(5)]DDAAFL[PyrS2″][3Thi][Bta]Q-NH2 (staple 1-4, 4-11) [I-1223]
Qu. I'm curious, which of these has a smaller pEC50 number: A or B ? Mark your answer with the label of the selected entry.
Ans. B
